# method description: Cell Viability - LYMP2-008 (AID 980); note: nearly all actives have a fitted effect of over 60% in size
# applied conditions: LYMP2-008 lymphoblastoid cell viability, qHTS; series mostly up to 92.2 µM
Results filed as inconclusive are left out. Activity calls are given as the source filed them. Calls come from the whole dose curve; as a rule, active = well fitted cell-killing curve with a large enough effect; inconclusive = small, poorly fitted or top-dose-only effect; inactive = flat fitted curve, though single readings scatter.
Hi! Could you answer with just one of these? active, inactive

These recorded examples may help you get a feel for the data.
| molecule | class assignment |
| --- | --- |
| CCOc1ccc2c(c1)C(C)=CC(C)(C)N2 | inactive |
| O=S(=O)(O)O | inactive |
| Cc1ccccc1 | inactive |

Test call, this molecule: Nc1ccn([C@H]2CS[C@@H](CO)O2)c(=O)n1 inactive

Please indicate how the test categorized CC(O)CO (centres undefined) . inactive

Short answer needed: outcome of this test for CCCCCCCC/C=C\CCCCCCCC(=O)O ? inactive

Dear colleague, could you share the recorded outcome for CC1=C2[C@@H]([C@H](C)CC[C@H]2/C=C(\C)C(=O)O)[C@H](O)C1 when you have a moment? inactive

What classification did CC(C)(C)NC(=O)[C@@H]1C[C@@H]2CCCC[C@@H]2CN1C[C@@H](O)[C@H](Cc1ccccc1)NC(=O)[C@H](CC(N)=O)NC(=O)c1ccc2ccccc2n1 end up with in this test? active

Which result was noted for this molecule in the test: CCCCC/C=C\C/C=C\CCCCCCCC(=O)O inactive

* * *

# method description: Primary fluorescence-based thiol-reactive (MSTI) qHTS assay for identification of artifact compounds. (AID 1845221); note: nearly all actives have a fitted effect of over 65% in size
# applied conditions: MSTI thiol-reactivity probe, 1 h; series mostly up to 53.8 µM
Inconclusive results are not listed. Activity calls are given as the source filed them. Calls come from the whole dose curve; as a rule, active = well fitted inhibition curve with a large enough effect; inconclusive = small, poorly fitted or top-dose-only effect; inactive = no such curve, though single readings can be large or run the other way.
Reply using exactly one outcome from active, inactive

Solved cases below.
| compound | class assignment |
| --- | --- |
| OC[C@H]1O[C@@H](Oc2cc(O)cc(-c3cc4ccc(O)cc4o3)c2)[C@H](O)[C@@H](O)[C@@H]1O | active |
| COc1cc([C@H]2OC[C@]3(OC(C)=O)[C@@H](c4ccc(O[C@@H]5O[C@H](CO)[C@@H](O)[C@H](O)[C@H]5O)c(OC)c4)OC[C@H]23)ccc1O | inactive |
| COc1cc(/C=C/C(=O)OC2[C@H](O)CC(O)(C(=O)O)C[C@H]2O)ccc1O (some centres undefined) | inactive |

Which outcome was assigned to CC(=O)NCCCCn1c2c(c3ccccc31)C(=O)NCC2 in this test? inactive

* * *

# Tested on: Tov-21-G
# method description: Primary qHTS to identify gynecologic anti-cancer compounds using libraries of approved drugs and bioactive compounds (AID 1345084); note: % is set by controls: 0 for no effect and ±100 for the full control effect; nearly all actives have a fitted effect of over 55% in size
# applied conditions: Gynecologic cancer cell panel viability, ATPlite luminescence, 48 h; series mostly up to 57.5 µM
Results filed as inconclusive are left out. The source made the active and inactive calls. The call rests on the fitted dose curve; in most records, active means well fitted cell-killing curve with a large enough effect; inconclusive means small, poorly fitted or top-dose-only effect, or effect the other way; inactive means flat fitted curve, though single readings scatter.
assay metric: activity change, negative = cytotoxicity

Consider the following illustrative entries.
| compound | tgt | activity change, negative = cytotoxicity |
| --- | --- | --- |
| C[C@@H]1O[C@@H](O[C@@H]2[C@@H](O)[C@H](O[C@@H]3[C@@H](O)[C@@H](O)[C@H](O[C@H]4[C@H](OC(=O)[C@]56CCC(C)(C)C[C@H]5C5=CCC7[C@@]8(C)C[C@H](O)[C@H](O[C@@H]9O[C@H](C(=O)O)[C@@H](O)[C@H](O)[C@H]9O)[C@@](C)(CO)C8[C@H](O)C[C@@]7(C)[C@]5(C)CC6)OC[C@H](O)[C@@H]4O)O[C@H]3C)OC[C@H]2O)[C@H](O)[C@H](O)[C@H]1O (stereo partly specified) | Tov-21-G | -4.43% [at 6.55 µM] (inactive) |
| CC1(C)CC2C3=CCC4C5(C)CCC(OC6OC(CO)C(O)C(OC7OC(CO)C(O)C(OC8OC(CO)C(O)C(OC9OC(COC%10OC(CO)C(O)C(O)C%10O)C(O)C(O)C9O)C8O)C7O)C6O)C(C)(C)C5CCC4(C)C3(C)CCC2(C(=O)O)CC1O (stereo unspecified) | Tov-21-G | -2.7% [at 6.55 µM] (inactive) |
| Cc1cc(O)cc(Oc2cc(C)c(C(=O)O)c(O)c2)c1 | Tov-21-G | inactive |
| O=C1N(CC2CCCCN2)CCN1c1ccccc1 (stereo unspecified) | Tov-21-G | inactive |
| C=C1CCC2(OC1)OC1CC3C4CC=C5CC(O)CC(O[C@@H]6OC[C@@H](O)[C@H](O)[C@H]6O)C5(C)C4CCC3(C)C1(O)C2C (stereo partly specified) | Tov-21-G | inactive |

# next compound below
Which activity change, negative = cytotoxicity value is on record for CC(C)CC(=O)OC[C@H]1O[C@@](COC(=O)CC(C)C)(O[C@H]2O[C@H](CO)[C@@H](O)[C@H](O)[C@H]2OC(=O)CC(C)C)[C@@H](OC(=O)CC(C)C)[C@@H]1O ? inactive
